Assay: protein stability index of a GFP-peptide fusion (GPS, HEK-293T) (PSI 1-6); higher = more stable;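 note: 24-mer peptide tiles fused after GFP, lentivirally expressed, FACS-sorted into six equal bins by GFP/DsRed ratio, decoded by Illumina sequencing, PSI is the read-weighted mean bin number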
Settings: treatment: MLN4924 1 uM, 8 h; c terminus: a fixed tail appended
measured.quantity: protein stability index

                         sequence_data  endpoint_value
 0     LVPFVGKVHIGYLPNKQVLGLSKL [GCH1]            2.06
 1     ETVTVTVGPAEPTLVNFHLKRSIP [CPN1]            3.16
 2  LPPSPRFLVMKGQEGAASKVLGRL [SLC2A12]            3.48
 3   GLFFPPQLNGTANDTAGPELPDPL [NFE2L1]            4.45
 4    LPPDMTVVPGDHLLEPEVADGGGA [KCNA3]            5.42
 5    PFFVLNSDVICDFPFQAMVQFHRH [GMPPB]            2.34
 6     IKELYENFCKHNGSKNVFSTFRTP [ATL3]            2.29
 7     SVDEQNALREVYAHAVLGQHSHVV [WEE1]            3.47
 8     LADPYRSLKAPGARGPGPEGGGGG [JUNB]            4.71
 9     AISSPTVSRLTDTTKFTGSHKERF [TPPP]            4.29
10    RELNDRLAVYIDKVRSLETENSAL [LMNB1]            3.04
11    FQDAIFPDTQENRRMFSSLFQFSN [CCDC3]            2.58
12   GDSFSHSSNRIRHLRTHTGERPYK [ZNF263]            4.62
